# tested-target: HLA-B*3501 (human)
# assay-info: competition vs 125I-labelled probe peptide, purified HLA, gel filtration
pIC50: −log10 of the molar value.
Rule: pIC50 of 6 or more gives true (1); anything lower gives false (0).

# input Given FPYDGIPAREI (11-mer B7 supermotif analog of the HER2/neu peptide starting at position 921) [Her2/neu.921.F1I11] , state whether its pIC50 is at least 6.
# output false (0)

# input Given FPLPAARPI (9-mer analog of the HER2/neu peptide starting at position 1155) [Her2/neu.1155.F1I9] , state whether its pIC50 is at least 6.
# output true (1)

# input Given FPTHDPSPI [Her2/neu.1101.F1I9] , state whether its pIC50 is at least 6.
# output true (1)

# input Given FPASPLDSTF (10-mer analog of the HER2/neu peptide starting at position 995) [Her2/neu.995.F1] , state whether its pIC50 is at least 6.
# output true (1)

# input Given FPAARPAGATL (11-mer analog of the HER2/neu peptide starting at position 1157) [Her2/neu.1157.F1] , state whether its pIC50 is at least 6.
# output true (1)

# input Given FPAARPAGATI (11-mer analog of the HER2/neu peptide starting at position 1157) [Her2/neu.1157.F1I11] , state whether its pIC50 is at least 6.
# output false (0)
